Assign inhibition to each entry below.
Target: Ribosomal protein S6 kinase alpha-3 (Homo sapiens) (UniProt P51812);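 also: reported value is a mean inhibition figure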
Sequence (P51812 whole entry): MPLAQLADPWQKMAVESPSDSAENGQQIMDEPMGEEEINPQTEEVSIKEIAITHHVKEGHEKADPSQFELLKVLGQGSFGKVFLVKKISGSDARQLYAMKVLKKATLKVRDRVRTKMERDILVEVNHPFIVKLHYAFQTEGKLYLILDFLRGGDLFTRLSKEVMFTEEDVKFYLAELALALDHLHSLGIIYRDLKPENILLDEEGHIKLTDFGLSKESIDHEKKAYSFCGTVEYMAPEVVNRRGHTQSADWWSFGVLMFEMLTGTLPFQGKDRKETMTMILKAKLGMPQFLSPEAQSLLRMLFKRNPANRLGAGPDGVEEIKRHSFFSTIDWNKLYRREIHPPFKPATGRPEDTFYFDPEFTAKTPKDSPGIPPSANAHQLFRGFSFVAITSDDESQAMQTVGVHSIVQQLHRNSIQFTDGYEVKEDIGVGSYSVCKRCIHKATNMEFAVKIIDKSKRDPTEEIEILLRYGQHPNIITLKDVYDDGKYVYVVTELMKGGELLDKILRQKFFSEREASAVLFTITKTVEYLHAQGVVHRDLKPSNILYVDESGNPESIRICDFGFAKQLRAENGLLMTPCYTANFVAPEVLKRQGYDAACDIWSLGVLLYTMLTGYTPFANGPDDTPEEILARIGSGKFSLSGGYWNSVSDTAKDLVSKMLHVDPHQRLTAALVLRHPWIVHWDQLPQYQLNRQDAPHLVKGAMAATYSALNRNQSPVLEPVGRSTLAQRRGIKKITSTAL
Conditions: at 0.1 µM
Give the value, in units of %, as a plain number.

Ask | Name the recorded inhibition of the molecule listed here: "c1ccc(-c2nc3n(c2-c2ccc4c(c2)OCO4)CCC3)nc1"
Reply | 4.41

Ask | Return inhibition for the following molecule: "COc1ccc(CNC(=O)c2ccc(-c3cc(-c4nnc(C)o4)ccc3C)cc2)cc1"
Reply | 2.12

Ask | Tell me inhibition reported for "CCOc1ccc2c(-c3ccnc(Nc4cccc(C(F)(F)F)c4)n3)cnn2n1"
Reply | 1.29

Ask | Give the measured inhibition for "CCN1CCC(CC(=O)Nc2n[nH]c3nnc(-c4cccc(F)c4F)cc23)CC1"
Reply | 3.2

###

Target: Mitogen-activated protein kinase 11 (Homo sapiens) (UniProt Q15759);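 also: values are mean percent inhibition of p38beta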
Sequence (Q15759 whole entry): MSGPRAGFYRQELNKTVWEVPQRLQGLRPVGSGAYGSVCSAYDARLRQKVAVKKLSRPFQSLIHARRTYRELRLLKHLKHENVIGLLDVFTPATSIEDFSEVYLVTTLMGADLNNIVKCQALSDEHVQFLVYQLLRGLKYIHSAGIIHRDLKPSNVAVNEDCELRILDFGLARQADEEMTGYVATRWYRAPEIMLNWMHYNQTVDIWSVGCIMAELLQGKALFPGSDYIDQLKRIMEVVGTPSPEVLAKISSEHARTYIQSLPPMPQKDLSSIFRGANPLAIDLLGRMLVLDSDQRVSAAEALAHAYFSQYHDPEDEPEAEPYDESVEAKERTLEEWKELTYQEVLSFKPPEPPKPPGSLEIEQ
Details: at 1 µM
Measured endpoint: inhibition (%)
I only need the number, in %, no unit after it.

Ask | Entry "COc1ccc(-c2nn3ncccc3c2-c2ccnc(Nc3ccc4c(c3)OCCO4)n2)cc1" needs its inhibition filled in; supply it.
Reply | 75.4

Ask | Determine from records and report inhibition for "CCc1nn2ncccc2c1-c1ccnc(NC2CC2)n1"
Reply | 7.82

Ask | Give the measured inhibition for "CC(C)(CO)CNC(=O)c1ccc2c(c1)/C(=N/Nc1ccc(S(N)(=O)=O)cc1)C(=O)N2"
Reply | 9.13

Ask | Quote inhibition reported for "Cc1cccc(Nc2ncc(-c3ccccc3)o2)c1" please.
Reply | 6.62

Ask | Consider the molecule "COc1ccc2[nH]c3c4[nH]c5ccc(OC)cc5c4c4c(c3c2c1)C(=O)NC4=O" . State its measured inhibition.
Reply | 7.66

Ask | Consider the molecule "COc1cc(Nc2nccc(Nc3ccc4c(C)n[nH]c4c3)n2)cc(OC)c1OC" and give its recorded inhibition.
Reply | 6.13

Ask | Indicate its recorded inhibition; the molecule in question is "CCN(CC)S(=O)(=O)c1ccc(OC)c(Nc2ncc(-c3ccccc3)o2)c1"
Reply | 4.45

Ask | Give recorded inhibition. "COc1ccc(-c2oc3ncnc(N)c3c2-c2ccc(NC(=O)Nc3cc(C(F)(F)F)ccc3F)cc2)cc1"
Reply | 37.8

Ask | Give me measured inhibition, please, for this molecule: "Fc1ccc(-c2cc(-c3c[nH]nc3-c3ccccn3)ccn2)cc1"
Reply | 12.5

###

Please respond with reported inhibition for every item in the list.
Target: Inhibitor of nuclear factor kappa-B kinase subunit alpha (Homo sapiens) (UniProt O15111);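 also: mean inhibition of IKKA, from the GSK PKIS data set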
Sequence (O15111 whole entry): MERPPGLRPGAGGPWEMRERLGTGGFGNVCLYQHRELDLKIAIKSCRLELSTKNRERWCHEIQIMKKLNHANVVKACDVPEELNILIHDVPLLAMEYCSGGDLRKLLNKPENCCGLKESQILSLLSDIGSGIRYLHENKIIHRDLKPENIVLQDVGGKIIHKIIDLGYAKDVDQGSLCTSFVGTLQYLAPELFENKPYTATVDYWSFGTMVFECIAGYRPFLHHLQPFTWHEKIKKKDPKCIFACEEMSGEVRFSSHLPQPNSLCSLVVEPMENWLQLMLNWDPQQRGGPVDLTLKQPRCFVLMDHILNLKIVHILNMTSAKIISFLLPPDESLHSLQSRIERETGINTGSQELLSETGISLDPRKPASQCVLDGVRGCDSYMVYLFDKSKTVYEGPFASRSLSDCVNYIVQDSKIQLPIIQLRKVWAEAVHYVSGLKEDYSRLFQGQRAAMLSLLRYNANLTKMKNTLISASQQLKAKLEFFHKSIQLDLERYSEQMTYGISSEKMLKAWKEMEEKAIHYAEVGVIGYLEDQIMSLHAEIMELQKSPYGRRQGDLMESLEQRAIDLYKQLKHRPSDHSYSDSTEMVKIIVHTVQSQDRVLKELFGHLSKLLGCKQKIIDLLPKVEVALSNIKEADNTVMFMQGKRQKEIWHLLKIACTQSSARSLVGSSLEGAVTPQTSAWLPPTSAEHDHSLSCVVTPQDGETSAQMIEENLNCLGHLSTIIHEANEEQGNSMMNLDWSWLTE
Settings: at 1 µM
API: value field is a number in %; no unit string.

Ask | Return value of inhibition for input "CNC(=O)c1cncc(/C=C/c2ccccc2Cl)c1" , no commentary.
Reply | -3.09

Ask | Give the reported inhibition for this compound. "Nc1nc(-c2ccc(F)cc2)c(-c2ccc3ncccc3n2)s1"
Reply | 5.46

Ask | Specify measured inhibition for "CN1CCC(n2cnc(-c3ccc(F)cc3)c2-c2ccnc(Nc3ccccc3)n2)CC1" .
Reply | 1.62

Ask | Identify measured inhibition corresponding to "Cc1cccc(Nc2ncc(-c3ccccc3)o2)c1"
Reply | 7.95

Ask | Specify reported inhibition for the compound shown: "COc1ccc(-c2nn3ncccc3c2-c2ccnc(Nc3ccc4c(c3)OCCO4)n2)cc1"
Reply | 1.71

Ask | Check the records and state inhibition for "CCN(CC)S(=O)(=O)c1ccc(OC)c(Nc2ncc(-c3ccccc3)o2)c1"
Reply | -6.23

Ask | Supply inhibition value. Item: "CN1CCC(n2cnc(-c3ccc(F)cc3)c2-c2ccnc(N)n2)CC1"
Reply | 6.98

Ask | Please report inhibition for the following compound: "Fc1ccc(-c2cc(-c3c[nH]nc3-c3ccccn3)ccn2)cc1"
Reply | 3.99

Ask | Tell me its inhibition given CC1=C(C(=O)Nc2cc(Cl)c3[nH]ncc3c2)C(c2ccc(C(F)(F)F)cc2)CC(=O)N1 (stereo not given) as the entry.
Reply | 4.34

Ask | Return value of inhibition for input "Cc1ccc(O)cc1Nc1ccnc2cc(-c3ccccn3)ccc12" , no commentary.
Reply | -1.79

Ask | Give the measured inhibition for "COC(=O)Nc1nc2ccc(Oc3ccc(NC(=O)Nc4cccc(Cl)c4)cc3)cc2[nH]1"
Reply | 6.02

Ask | Look up inhibition of "FC(F)(F)c1cccc(-c2nn3ncccc3c2-c2ccnc(Nc3ccc4c(c3)OCCO4)n2)c1" and report it.
Reply | 0.65

Ask | Retrieve inhibition measured for "NS(=O)(=O)c1ccc(Nc2ncc(-c3ccccc3)o2)cc1" and print it.
Reply | 15.3

Ask | Find the measured inhibition of "CCNC(=O)O[C@H]1CN[C@H](C#Cc2cc3ncnc(Nc4ccc(OCc5cccc(F)c5)c(Cl)c4)c3s2)C1" and report it.
Reply | -6.68

Ask | Provide measured inhibition value, entry: "CCn1cc(-c2ccnc3[nH]ccc23)c(-c2cccc(NC(=O)Nc3ccc(OCc4ccccc4)cc3)c2)n1"
Reply | -6.8

Ask | Tell us which inhibition value is on record for "Fc1ccc(-c2nn3ncccc3c2-c2ccnc(Nc3ccc4c(c3)OCCO4)n2)cc1"
Reply | 7.87

Ask | Provide one value: measured inhibition of "COc1ccc(-c2cc3c(N)ncnc3o2)cc1"
Reply | -3.79

Ask | Identify measured inhibition corresponding to "Nc1ncc(-c2cccc(S(N)(=O)=O)c2)c2scc(-c3ccc(F)c(Cl)c3)c12"
Reply | -3.58

Ask | // fetch inhibition given entry "CC(C)(CO)CNC(=O)c1ccc2c(c1)/C(=N/Nc1ccc(S(N)(=O)=O)cc1)C(=O)N2"
Reply | 3.43

Ask | Give the reported value of inhibition for this record: "COc1ccc(CNC(=O)c2ccc(-c3cc(-c4nnc(C)o4)ccc3C)cc2)cc1"
Reply | 7.25

###

Molecular target: Aurora kinase C (Homo sapiens)
Conditions: at 0.1 µM
Measured endpoint: inhibition (%)
Entry rule: numbers only, all in %.

Ask | State inhibition on Aurora kinase C (Homo sapiens). Entry: "CCOc1ccc2c(-c3ccnc(Nc4cccc(C(F)(F)F)c4)n3)cnn2n1"
Reply | 2.6

Ask | Provide Aurora kinase C (Homo sapiens) inhibition reading for "COc1ccc(-c2nn3ncccc3c2-c2ccnc(Nc3ccc4c(c3)OCCO4)n2)cc1" .
Reply | 6.73

Ask | State inhibition on Aurora kinase C (Homo sapiens). Entry: "COc1ccc(-c2cc(-c3c[nH]nc3-c3ccccn3)ccn2)cc1"
Reply | 2.12

Ask | Supply inhibition measured with Aurora kinase C (Homo sapiens) for "Fc1ccc(-c2nn3ncccc3c2-c2ccnc(Nc3ccc4c(c3)OCCO4)n2)cc1" .
Reply | 1.04

Ask | State the measured inhibition (Aurora kinase C (Homo sapiens)) of "COC(=O)Nc1nc2ccc(S(=O)(=O)c3ccc(NC(=O)Nc4cc(C(F)(F)F)ccc4F)cc3)cc2[nH]1"
Reply | 0.87

Ask | Provide the reported inhibition (system: Aurora kinase C (Homo sapiens)) for "Fc1ccc(-c2nn3ccccc3c2-c2ccncc2)cc1"
Reply | 0.61

Ask | Give inhibition for this entry on Aurora kinase C (Homo sapiens): "CS(=O)(=O)CCNCc1coc(-c2ccc3ncnc(Nc4ccc(OCc5ccccc5)cc4)c3c2)c1"
Reply | 1.46

Ask | Report its inhibition with Aurora kinase C (Homo sapiens) as the test system: "c1ccc(-c2nc3n(c2-c2ccc4c(c2)OCO4)CCC3)nc1"
Reply | 0.37

Ask | System Aurora kinase C (Homo sapiens). Read-out inhibition. Item "COc1ccc2[nH]c3c4[nH]c5ccc(OC)cc5c4c4c(c3c2c1)C(=O)NC4=O" . Report value.
Reply | 12.4

Ask | Please respond with reported inhibition (system Aurora kinase C (Homo sapiens)) for "CC(C)(CO)CNC(=O)c1ccc2c(c1)/C(=N/Nc1ccc(S(N)(=O)=O)cc1)C(=O)N2" .
Reply | 3.09

Ask | Give measured inhibition for "CC(=O)NCc1cccc(C#Cc2cncnc2Nc2ccc(OCc3cccc(F)c3)c(Cl)c2)c1" (Aurora kinase C (Homo sapiens)).
Reply | 1

Ask | Give inhibition only, for "O=S(=O)(CCNCc1ccc(-c2ccc3ncnc(Nc4ccc(OCc5cccc(F)c5)c(Cl)c4)c3c2)o1)c1ccccc1" , using Aurora kinase C (Homo sapiens) data.
Reply | 2.93

Ask | // fetch inhibition; item: "CS(=O)(=O)CCNCc1ccc(-c2ccc3ncnc(Nc4ccc(OCc5ccccc5)c(C(F)(F)F)c4)c3c2)o1" ; system: Aurora kinase C (Homo sapiens)
Reply | -0.38

Ask | Give inhibition only, for "O=C(Nc1n[nH]c2cc(-c3ccc(F)cc3)ccc12)C1CC1" , using Aurora kinase C (Homo sapiens) data.
Reply | 0.6

Ask | Write inhibition of "CCCN(CCS(C)(=O)=O)Cc1ccc(-c2ccc3ncnc(Nc4ccc(OCc5cccc(F)c5)c(Cl)c4)c3c2)o1" ; system used: Aurora kinase C (Homo sapiens)
Reply | 1.17

Ask | State recorded inhibition with Aurora kinase C (Homo sapiens), entry "Cc1cccc(Nc2ncc(-c3ccccc3)o2)c1" , no comment.
Reply | 0.68

Ask | Look up and report inhibition, with Aurora kinase C (Homo sapiens) as system, for "CNC(=O)c1cncc(/C=C/c2ccccc2Cl)c1"
Reply | 5.27

Ask | State inhibition (Aurora kinase C (Homo sapiens)) of "CCn1c(-c2nonc2N)nc2c(C#CC(C)(C)O)ncc(OC3CCNCC3)c21" .
Reply | 1.48

Ask | Report the value of inhibition obtained on Aurora kinase C (Homo sapiens) for "COc1cc(/C=N/Nc2ncnc3[nH]ncc23)ccc1O" .
Reply | 6.8

Ask | Report inhibition from Aurora kinase C (Homo sapiens) testing of "CC(C)COC(=O)c1ccc2c(c1)/C(=C/Nc1ccc(S(N)(=O)=O)cc1)C(=O)N2"
Reply | 4.05
